Please provide measured Ki for the entries that follow.
Biological target: T1, Nluc-IL23R fusion protein (human, UniProt Q5VWK5 22-629)
T1 construct: range 22-629; Stably expressed in HEK293 cells; also called hIL-23R; human IL-23R fused to a Nanoluc luciferase enzyme; not shown: Nanoluc luciferase (Promega N1371 plasmid) at the N-terminus
T1 sequence (looked up): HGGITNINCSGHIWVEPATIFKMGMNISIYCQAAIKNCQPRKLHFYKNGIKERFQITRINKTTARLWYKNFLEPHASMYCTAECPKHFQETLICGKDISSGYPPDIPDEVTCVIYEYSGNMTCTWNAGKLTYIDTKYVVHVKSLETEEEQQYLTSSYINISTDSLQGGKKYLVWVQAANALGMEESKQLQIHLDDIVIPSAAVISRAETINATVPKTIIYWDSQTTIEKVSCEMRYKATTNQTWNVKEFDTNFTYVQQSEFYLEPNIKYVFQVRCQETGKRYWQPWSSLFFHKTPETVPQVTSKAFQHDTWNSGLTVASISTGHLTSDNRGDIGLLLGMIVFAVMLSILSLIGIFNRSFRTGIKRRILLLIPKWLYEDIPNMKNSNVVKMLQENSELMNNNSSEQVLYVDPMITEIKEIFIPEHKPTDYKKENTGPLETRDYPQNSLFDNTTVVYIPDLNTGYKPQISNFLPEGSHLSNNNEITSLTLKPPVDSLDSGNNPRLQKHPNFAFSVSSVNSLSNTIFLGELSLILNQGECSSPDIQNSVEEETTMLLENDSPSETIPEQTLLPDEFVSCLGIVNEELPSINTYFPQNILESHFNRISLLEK
Experiment: BRET displacement of TAMRA-labelled peptide, Nluc-IL23R membranes
Bridges are numbered along the chain shown (N, C = ends). [ ]: non-standard residue; d: D form. 1,3‑dibromopropan‑2‑one = linker (CAS 816-39-7) joining two Cys as 1,3-dithio-propan-2-one bridge -SCH2C(=O)CH2S-; AEF = NCCOc1ccc(C[C@H](N)C(=O)O)cc1; αMeK = C[C@](N)(CCCCN)C(=O)O; Abu = CC[C@H](N)C(=O)O
Report the figure along with its unit, number first.

Recorded Ki of H-DESCWQCWWLKR-NH2 (lactam 2-11; linker 4-7 via 1,3‑dibromopropan‑2‑one) [Compound 4] , please.
143 nM

Recorded Ki of Ac-[Abu]QTWQC[AEF]W[αMeK]ENG-NH2 (thioether 1-6) [Compound C] , please.
2.11 nM

Recorded Ki of Ac-ESCWQCWWLK-NH2 (lactam 1-10; linker 3-6 via 1,3‑dibromopropan‑2‑one) [Compound 12] , please.
373 nM
